measurement-protocol: NCI Yeast Anticancer Drug Screen. Data for the bub3 strain (AID 167)
particulars: S. cerevisiae bub3 mutant strain, at 33.0 µM
This is part of a sample that, as a whole, favours compounds with a hit. Of some 79,000 tested, about 15% had one in any assay. Calls of active or inactive are those of the source. No stated cut-off is given here; in the data, active means growth inhibition above about 70%; inactive means the rest.
# output must be one of active, inactive

INPUT: # lookup: test call for `O=C(O)c1ccccc1NC(=S)c1ccccc1`
OUTPUT: inactive

INPUT: # lookup: test call for `O=C1C(=O)c2ccccc2C=C1[N+](=O)[O-]`
OUTPUT: inactive

INPUT: # lookup: test call for `Cc1ccc(Cl)c2[nH]c(-c3ccccc3)cc(=O)c12`
OUTPUT: inactive

INPUT: # lookup: test call for `O=C(O)c1ccccc1-c1ccccc1C(=O)Nc1ccc2c(c1)Cc1ccccc1-2`
OUTPUT: inactive

INPUT: # lookup: test call for `O=[N+]([O-])c1cccc2nc3ccccc3c(NCCCN3CCOCC3)c12`
OUTPUT: active

INPUT: # lookup: test call for `O=[N+]([O-])C(=C(Sc1ccccc1)Sc1ccccc1)C(Cl)=C(Cl)Cl`
OUTPUT: inactive

INPUT: # lookup: test call for `CCCCOC(=O)N[C@H]1CCc2cc(OC)c(OC)c(OC)c2-c2ccc(SC)c(=O)cc21`
OUTPUT: inactive

INPUT: # lookup: test call for `CCN(CC)CCC(=O)c1ccc(Oc2ccc(F)cc2)cc1`
OUTPUT: active

INPUT: # lookup: test call for `CC(=O)OCc1ccc(O)c(C=O)c1`
OUTPUT: inactive

INPUT: # lookup: test call for `CCS(=O)(=O)c1ccc(/C=C/C=N/NC(=S)NCC(C)C)cc1`
OUTPUT: inactive

INPUT: # lookup: test call for Cc1ccc(C2C(Cl)C(=O)N2n2cnc3ccccc3c2=O)cc1 (stereo unspecified)
OUTPUT: inactive

---

Field: growth inhibition. Provide a value for each of the compounds that follow.
measurement-protocol: NCI Yeast Anticancer Drug Screen. Data for the sgs1 strain (AID 173);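 further: 0% = growth of vehicle-only control cultures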
particulars: S. cerevisiae sgs1 mutant, at 33.0 µM, active compounds read high
The panel holds about 79,000 compounds, 15% with a hit somewhere; the sample as a whole holds those more often. Active and inactive are the calls of the source. Cut-off read from the data, not from the text of the source: active = growth inhibition above about 70%; inactive = the rest.

INPUT: Which growth inhibition reading was recorded for the compound `COc1ccc(/C(C)=N/OC(=O)c2c(-c3ccccc3Cl)noc2C)cc1CN1CCOCC1` ?
OUTPUT: 30% (inactive)

INPUT: Which growth inhibition reading was recorded for the compound `Cc1ccc(NC(=O)/C(Cl)=C(\Cl)C(=O)O)cc1C` ?
OUTPUT: 99% (active)

INPUT: Which growth inhibition reading was recorded for the compound `Cc1c(Cl)ccc2c1S(=O)(=O)c1cccc(Cl)c1-2` ?
OUTPUT: -13% (inactive)

INPUT: Which growth inhibition reading was recorded for the compound `O=C(OCC=C1CCCC1)c1cc([N+](=O)[O-])cc([N+](=O)[O-])c1` ?
OUTPUT: 97% (active)

INPUT: Which growth inhibition reading was recorded for the compound `O=[N+]([O-])c1ccc([N+]2=NC(c3ccccc3)=NN(c3ccccc3)C2)cc1` ?
OUTPUT: 28% (inactive)

INPUT: Which growth inhibition reading was recorded for the compound O=C1OC(CCl)CN1/N=C/c1ccc([N+](=O)[O-])o1 (stereo not given) ?
OUTPUT: 83% (active)

INPUT: Which growth inhibition reading was recorded for the compound `COc1ccc(Br)c(C(=O)Sc2nnnn2-c2cccc(Cl)c2)c1` ?
OUTPUT: 49% (inactive)

INPUT: Which growth inhibition reading was recorded for the compound `CC(=O)Oc1ccc2c(c1)Cc1cc(N=C3C=CC(=O)O3)ccc1-2` ?
OUTPUT: 99% (active)

INPUT: Which growth inhibition reading was recorded for the compound C(=C\c1ccccc1)/COc1ccccc1C(N1CCOCC1)n1nc2ccccc2n1 (stereo not given) ?
OUTPUT: 96% (active)

INPUT: Which growth inhibition reading was recorded for the compound O=C(O)C1CCCCC1c1c2ccc(=O)c(O)c-2oc2c(O)c(O)ccc12 (stereo not given) ?
OUTPUT: 33% (inactive)

INPUT: Which growth inhibition reading was recorded for the compound COc1cc(C2c3cc4c(cc3OC(NNc3ccccc3)C2C)OCO4)cc(OC)c1OC (stereo not given) ?
OUTPUT: 88% (active)

INPUT: Which growth inhibition reading was recorded for the compound `O=[N+]([O-])c1cc2no[n+]([O-])c2cc1N1CCCCC1` ?
OUTPUT: 99% (active)

INPUT: Which growth inhibition reading was recorded for the compound `O=C(Nc1ccccc1)OCCc1ccc(Cl)c(Cl)c1` ?
OUTPUT: 22% (inactive)

INPUT: Which growth inhibition reading was recorded for the compound `CCCCCCc1cc(C(=O)OC/C(C)=N/NC(N)=O)c2ccccc2n1` ?
OUTPUT: -5% (inactive)

INPUT: Which growth inhibition reading was recorded for the compound `C/C(=N/NC(=S)N1CCCCCC1)c1cccc(/C(C)=N\NC(=S)N2CCCCCC2)n1` ?
OUTPUT: 66% (inactive)

INPUT: Which growth inhibition reading was recorded for the compound COc1cc(CC2CC(c3ccc4c(c3)OCO4)OC2=O)cc(OC)c1OC (stereo not given) ?
OUTPUT: 0% (inactive)

INPUT: Which growth inhibition reading was recorded for the compound `S=C(S)NN1CCOCC1` ?
OUTPUT: 54% (inactive)

INPUT: Which growth inhibition reading was recorded for the compound COc1ccc(C2c3cc4c(cc3OC(C)(O)C2C)OCO4)c(OC)c1 (stereo not given) ?
OUTPUT: 18% (inactive)

INPUT: Which growth inhibition reading was recorded for the compound `COc1ccc(/C=C/C(=O)C(C)(C)Br)cc1` ?
OUTPUT: 92% (active)

INPUT: Which growth inhibition reading was recorded for the compound `COc1ccc(-c2cn(-c3ccc(I)cc3)c3ncnc(N)c23)cc1` ?
OUTPUT: 26% (inactive)

INPUT: Which growth inhibition reading was recorded for the compound `NCCNc1ccc(NCCN)c2c1C(=O)c1c(O)ccc(O)c1C2=O` ?
OUTPUT: 86% (active)

INPUT: Which growth inhibition reading was recorded for the compound `Cn1c(=O)c2ccccc2c2ccccc21` ?
OUTPUT: 43% (inactive)

INPUT: Which growth inhibition reading was recorded for the compound `Cc1ccc(N)c(S)c1` ?
OUTPUT: 98% (active)

INPUT: Which growth inhibition reading was recorded for the compound OC(COc1cccc2ccccc12)CN1CCOCC1 (stereo not given) ?
OUTPUT: 59% (inactive)

INPUT: Which growth inhibition reading was recorded for the compound `CCCCCCCCCCCC1=C(O)C(=O)C=C(O)C1=O` ?
OUTPUT: 95% (active)

INPUT: Which growth inhibition reading was recorded for the compound `Cc1ccc(Cl)c2[nH]c(-c3ccccc3)cc(=O)c12` ?
OUTPUT: -3% (inactive)

INPUT: Which growth inhibition reading was recorded for the compound `COc1ccc(NC(=S)N/N=C(\c2ccccc2)c2ccccn2)cc1` ?
OUTPUT: 52% (inactive)

INPUT: Which growth inhibition reading was recorded for the compound `O=C(NCCCNCCCNC(=O)c1cc(-c2ccccc2)nc2ccccc12)c1cc(-c2ccccc2)nc2ccccc12` ?
OUTPUT: 7% (inactive)

INPUT: Which growth inhibition reading was recorded for the compound `CCOC(=O)c1cnc2c(C(F)(F)F)cccc2c1N=[N+]=[N-]` ?
OUTPUT: 67% (inactive)

INPUT: Which growth inhibition reading was recorded for the compound `O=C1c2ccccc2-c2nc3ccccc3nc21` ?
OUTPUT: -19% (inactive)

INPUT: Which growth inhibition reading was recorded for the compound `CCCCN(CCCC)CCSc1ccc(Cl)cc1` ?
OUTPUT: 42% (inactive)

INPUT: Which growth inhibition reading was recorded for the compound `CO[C@H]1C[C@](C)(O)Cc2cc3c(c(O)c21)C(=O)c1c(O)cc2c(c1C3=O)O[C@@H]1O[C@@]2(C)[C@H](O)[C@@H](N(C)C)[C@@H]1O` ?
OUTPUT: -7% (inactive)

INPUT: Which growth inhibition reading was recorded for the compound CCCCCCCCCCCCCC[N+](C)(CC(=O)[O-])Cc1ccccc1 (stereo not given) ?
OUTPUT: 99% (active)

INPUT: Which growth inhibition reading was recorded for the compound `Cc1c(C2=C(Br)C(=O)N(C)C2=O)c(=O)n(C)c(=O)n1C` ?
OUTPUT: 60% (inactive)

INPUT: Which growth inhibition reading was recorded for the compound `Cc1cc(N=Nc2ccc(S(=O)(=O)[O-])cc2)cc(C(=O)[O-])c1[O-].NC1CCCCC1N.[Na+].[Pt+4]` ?
OUTPUT: 99% (active)

INPUT: Which growth inhibition reading was recorded for the compound `COc1ccccc1N=NC(C(=O)c1ccccc1)C(=O)c1ccccc1` ?
OUTPUT: 96% (active)

INPUT: Which growth inhibition reading was recorded for the compound CNC1C(OC2C(OC3C(O)C(O)C(N=C(N)N)C(O)C3N=C(N)N)OC(C)C2(O)CO)OC(CO)C(O)C1O (stereo not given) ?
OUTPUT: 35% (inactive)

INPUT: Which growth inhibition reading was recorded for the compound `N#CN1C2CCC1CC(=O)C2` ?
OUTPUT: -23% (inactive)

INPUT: Which growth inhibition reading was recorded for the compound `O=C(N=Nc1ccccc1Cl)NNc1ccccc1Cl` ?
OUTPUT: 21% (inactive)

INPUT: Which growth inhibition reading was recorded for the compound `CCN(CC)CCNc1ccc([N+](=O)[O-])c2nc3ccc(OC)cc3c(N)c12` ?
OUTPUT: 10% (inactive)

INPUT: Which growth inhibition reading was recorded for the compound `O=C(NC(Nc1ccc(F)c(Cl)c1)(C(F)(F)F)C(F)(F)F)C(C(F)(F)F)C(F)(F)F` ?
OUTPUT: 93% (active)

INPUT: Which growth inhibition reading was recorded for the compound `COc1ccccc1/C=C1\Sc2scc(-c3cccc([N+](=O)[O-])c3)[n+]2C1=O` ?
OUTPUT: 97% (active)

INPUT: Which growth inhibition reading was recorded for the compound `CC(=O)Nc1ccc(/C=C(\C#N)c2ccc(C)cc2)cc1` ?
OUTPUT: -13% (inactive)

INPUT: Which growth inhibition reading was recorded for the compound `C/C(=N\NC(=S)N1CCCCC1)c1cccc(C)n1` ?
OUTPUT: 98% (active)

INPUT: Which growth inhibition reading was recorded for the compound `CCCCCCCCCC/C=C\C(=O)O` ?
OUTPUT: 19% (inactive)
